I'd be grateful if you could share measured pEC50 for these entries.
# MEASUREMENT TARGET: UniProt:P42858
# Sequence (P42858 whole entry, looked up): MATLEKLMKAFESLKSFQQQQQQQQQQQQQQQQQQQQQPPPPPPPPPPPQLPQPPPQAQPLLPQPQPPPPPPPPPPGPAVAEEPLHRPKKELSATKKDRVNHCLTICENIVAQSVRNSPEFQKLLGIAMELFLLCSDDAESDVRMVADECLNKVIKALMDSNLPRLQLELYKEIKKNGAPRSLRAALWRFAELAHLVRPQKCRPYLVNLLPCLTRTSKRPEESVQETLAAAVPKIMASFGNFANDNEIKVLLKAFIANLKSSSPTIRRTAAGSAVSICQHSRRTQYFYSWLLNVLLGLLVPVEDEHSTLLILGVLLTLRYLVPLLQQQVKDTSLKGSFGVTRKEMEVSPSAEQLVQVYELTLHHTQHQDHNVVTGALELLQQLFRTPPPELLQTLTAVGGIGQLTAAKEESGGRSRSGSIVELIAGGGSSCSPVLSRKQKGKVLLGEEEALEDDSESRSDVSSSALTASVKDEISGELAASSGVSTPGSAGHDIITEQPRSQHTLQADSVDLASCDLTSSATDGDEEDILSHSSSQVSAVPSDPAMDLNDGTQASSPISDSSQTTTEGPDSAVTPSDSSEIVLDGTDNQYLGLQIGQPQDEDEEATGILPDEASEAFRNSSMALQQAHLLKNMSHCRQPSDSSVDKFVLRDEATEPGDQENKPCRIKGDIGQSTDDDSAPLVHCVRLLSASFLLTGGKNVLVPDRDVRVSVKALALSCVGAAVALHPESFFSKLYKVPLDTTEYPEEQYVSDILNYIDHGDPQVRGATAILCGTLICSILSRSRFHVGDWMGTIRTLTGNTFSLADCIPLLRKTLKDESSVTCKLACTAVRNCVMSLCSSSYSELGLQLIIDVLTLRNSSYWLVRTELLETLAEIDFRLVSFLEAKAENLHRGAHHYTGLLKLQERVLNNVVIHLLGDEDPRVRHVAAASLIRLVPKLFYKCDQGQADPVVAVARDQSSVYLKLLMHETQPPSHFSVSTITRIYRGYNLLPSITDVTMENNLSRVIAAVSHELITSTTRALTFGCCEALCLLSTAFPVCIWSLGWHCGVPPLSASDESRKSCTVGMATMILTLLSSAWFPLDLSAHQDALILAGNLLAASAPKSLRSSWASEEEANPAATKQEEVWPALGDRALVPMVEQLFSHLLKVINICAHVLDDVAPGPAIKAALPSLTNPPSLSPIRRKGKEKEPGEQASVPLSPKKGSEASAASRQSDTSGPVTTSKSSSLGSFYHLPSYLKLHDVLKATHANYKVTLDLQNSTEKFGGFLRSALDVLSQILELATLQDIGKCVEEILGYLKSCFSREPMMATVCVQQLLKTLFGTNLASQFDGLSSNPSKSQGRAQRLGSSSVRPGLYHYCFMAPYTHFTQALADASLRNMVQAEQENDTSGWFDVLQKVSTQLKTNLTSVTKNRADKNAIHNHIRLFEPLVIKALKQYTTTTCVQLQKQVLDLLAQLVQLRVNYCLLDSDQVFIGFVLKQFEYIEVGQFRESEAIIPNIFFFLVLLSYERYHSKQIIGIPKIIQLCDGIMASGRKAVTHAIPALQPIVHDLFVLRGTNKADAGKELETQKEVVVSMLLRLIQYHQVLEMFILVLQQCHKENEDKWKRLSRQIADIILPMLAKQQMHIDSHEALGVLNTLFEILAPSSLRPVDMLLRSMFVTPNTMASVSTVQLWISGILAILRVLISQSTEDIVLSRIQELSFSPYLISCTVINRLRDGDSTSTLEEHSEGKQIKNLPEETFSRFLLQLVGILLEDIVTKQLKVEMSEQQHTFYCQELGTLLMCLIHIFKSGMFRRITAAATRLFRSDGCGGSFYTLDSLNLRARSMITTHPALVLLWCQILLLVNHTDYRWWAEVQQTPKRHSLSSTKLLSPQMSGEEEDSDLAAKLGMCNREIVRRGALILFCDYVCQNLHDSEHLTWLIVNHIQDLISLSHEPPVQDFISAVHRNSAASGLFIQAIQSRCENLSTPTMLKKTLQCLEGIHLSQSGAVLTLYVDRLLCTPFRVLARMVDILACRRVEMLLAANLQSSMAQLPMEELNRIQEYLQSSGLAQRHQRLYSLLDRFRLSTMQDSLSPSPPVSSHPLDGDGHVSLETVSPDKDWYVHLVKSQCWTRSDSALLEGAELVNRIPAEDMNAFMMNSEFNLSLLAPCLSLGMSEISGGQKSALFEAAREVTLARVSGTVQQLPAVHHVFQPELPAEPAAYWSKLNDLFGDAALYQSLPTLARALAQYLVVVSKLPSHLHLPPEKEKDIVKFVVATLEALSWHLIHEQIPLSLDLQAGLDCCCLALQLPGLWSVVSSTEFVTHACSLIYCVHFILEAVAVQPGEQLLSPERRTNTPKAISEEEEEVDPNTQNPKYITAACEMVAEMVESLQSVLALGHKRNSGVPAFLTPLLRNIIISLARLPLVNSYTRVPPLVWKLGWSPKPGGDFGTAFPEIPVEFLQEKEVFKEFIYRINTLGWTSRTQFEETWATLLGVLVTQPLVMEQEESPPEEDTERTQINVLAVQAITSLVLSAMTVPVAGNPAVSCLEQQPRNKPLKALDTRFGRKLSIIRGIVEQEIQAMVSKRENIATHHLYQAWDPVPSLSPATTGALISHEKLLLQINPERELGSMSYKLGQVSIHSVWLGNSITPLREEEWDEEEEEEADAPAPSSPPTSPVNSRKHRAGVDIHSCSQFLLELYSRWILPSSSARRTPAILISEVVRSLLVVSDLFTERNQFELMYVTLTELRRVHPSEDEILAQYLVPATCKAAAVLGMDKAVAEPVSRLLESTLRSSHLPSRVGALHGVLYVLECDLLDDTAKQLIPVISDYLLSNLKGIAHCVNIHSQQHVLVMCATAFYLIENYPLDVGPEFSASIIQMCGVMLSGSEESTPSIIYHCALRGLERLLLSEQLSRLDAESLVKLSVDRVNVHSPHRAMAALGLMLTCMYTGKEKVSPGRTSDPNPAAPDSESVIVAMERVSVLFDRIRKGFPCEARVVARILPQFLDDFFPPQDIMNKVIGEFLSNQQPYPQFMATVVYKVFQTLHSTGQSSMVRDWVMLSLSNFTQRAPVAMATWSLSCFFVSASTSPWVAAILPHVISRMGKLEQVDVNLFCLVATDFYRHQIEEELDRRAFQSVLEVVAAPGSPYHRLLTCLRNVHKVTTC
# EXPERIMENT: mutant huntingtin aggregation blockers – QA1, dose response (AID 1584)
# PROTOCOL CONDITIONS: in vitro mutant huntingtin aggregation assay
Results filed as inconclusive are left out.
Here pEC50 is given on a logarithmic scale as minus log10 of the concentration in mol/L.

Give a short answer stating reported pEC50 for `C=Cc1c(C)c2cc3[nH]c(cc4nc(cc5nc(cc1[nH]2)C(C)=C5CCC(=O)O)C(CCC(=O)O)=C4C)c(C)c3C=C` . 4.71

Give a short answer stating reported pEC50 for `C[C@@]1(C(=O)O)CC[C@]2(C)CC[C@]3(C)C4=CC=C5C=C(O)C(=O)C=C5[C@]4(C)CC[C@@]3(C)[C@@H]2C1` . 5.45

Give a short answer stating reported pEC50 for `O=c1c(O)c(-c2ccc(O)cc2O)oc2cc(O)cc(O)c12` . 4.77

Give a short answer stating reported pEC50 for `Cc1cc2c(C(C)C)c(O)c(O)c(C=O)c2c(O)c1-c1c(C)cc2c(C(C)C)c(O)c(O)c(C=O)c2c1O` . 6.19

Give a short answer stating reported pEC50 for CC(C)=CCCC1(C)C=Cc2c(O)c3c(c(CC=C(C)C)c2O1)OC12C(=CC4CC1C(C)(C)OC2(C/C=C(/C)C(=O)O)C4=O)C3=O (stereo not given) . 6.06

Give a short answer stating reported pEC50 for `O=C1C=CC(=O)c2c(O)cccc21` . 5.57

Give a short answer stating reported pEC50 for `C=C1c2c(Cl)ccc(O)c2C(O)=C2C(=O)[C@]3(O)C(O)=C(C(N)=O)C(=O)[C@@H](N(C)C)[C@@H]3[C@@H](O)[C@H]12` . 4.83

Give a short answer stating reported pEC50 for `O=C1c2c(O)cccc2Cc2cccc(O)c21` . 4.98

Give a short answer stating reported pEC50 for `Cc1cc(/C=C/c2ccc3cc(N(C)C)ccc3[n+]2C)c(C)n1-c1ccccc1` . 4.66

Give a short answer stating reported pEC50 for `C[n+]1cc2c3c(ccc2c2ccc4cc5c(cc4c21)OCO5)OCO3` . 5.24
